Target: T1, recombinant human full-length TDP-43 (TAR DNA-binding protein 43), soluble (human, UniProt Q13148 1-414)
T1 construct: Used on Luminex beads, coated on ELISA plates, and immobilized or injected in SPR; also called FL TDP-43; TDP-43 protein
T1 sequence (Q13148 whole entry): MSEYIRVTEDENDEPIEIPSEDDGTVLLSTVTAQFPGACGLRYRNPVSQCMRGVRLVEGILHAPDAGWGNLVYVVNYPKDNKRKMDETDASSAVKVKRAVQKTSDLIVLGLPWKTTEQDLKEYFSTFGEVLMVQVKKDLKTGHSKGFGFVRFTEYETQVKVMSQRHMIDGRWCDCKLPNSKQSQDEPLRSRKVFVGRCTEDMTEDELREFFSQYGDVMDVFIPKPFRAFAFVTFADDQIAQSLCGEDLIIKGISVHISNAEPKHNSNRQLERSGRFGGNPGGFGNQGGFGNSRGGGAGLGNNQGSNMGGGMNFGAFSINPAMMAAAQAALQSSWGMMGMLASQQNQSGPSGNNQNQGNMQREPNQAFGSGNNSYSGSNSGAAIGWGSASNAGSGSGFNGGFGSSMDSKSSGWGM
Assay: SPR, immobilized soluble TDP-43
readout type: kon (M⁻¹ s⁻¹)
Field format: number, assumed M⁻¹ s⁻¹, no unit text.

Below, each entry is followed by its recorded kon result.
binder	result number
ACI-7069-641H1-Ab2 (antibody, mouse IgG2b, V domains shown, Mouse IgG2b, kappa, from hybridoma; also called 641H1E7) VH: QVQLKESGPGLVAPSQSLSITCTVSGFSLTNYGVHWVRQPPGKGLEWLGLMWAGGSTNYNSALMSRLSISKDNSKSQVFLKMNSLQTDDTAMYYCVIYRTGFAYWGQGTLVTVSA VL: DVLMTQTPLSLPVSLGDQASISCRSSQSIVHTIGNTYLEWYLQKPGQSPKLLIYKVSNRFSGVPDRFSGSGSGTDFTLKISRVEAEDLGVYYCFQGSHVPFTFGSGTKLEIK	125000
ACI-7069-646B7-Ab1 (antibody, mouse IgG2b, V domains shown, Mouse IgG2b, kappa, from hybridoma; also called 646B7F7) VH: QVQLKESGPGLVAPSQSLSITCTVSGFSLTNFGVHWVRQPPGKGLEWLGIMWAGGSTNYNSALMSRLSISKDNSKSQVFLKMNSLQTDDTAMYYCVIYKTGFAYWGQGTLVTVSA VL: DVLMTQTPLSLPVSLGDQASISCRSSQSIVHAIGNTYLEWYLQKPGQSPKLLIYKVSNRFSGVPDRFSGSGSGTDFTLKISRVEAEDLGVYYCFQGSHVPFTFGSGTKLEIK	178000

Value of kon reported for the binder ACI-7071-809D9-Ab2 (antibody, mouse IgG2b, V domains shown, Mouse IgG2b, kappa, from hybridoma; also called 809D9C2) VH: QVQLQQSGAELVRPGVSVKISCKGSGYKFTDYSMHWVKQSHTKSLEWIGVISTYYGDTTYNQKFKGKATITVDKSSSTAYMELARLTSEDSAIYYCATYGNFPASFSYWGQGTLVTVSA VL: DIVMTQAAPSIPVTPGESVSISCRSSKSLLHSNGNTYLYWFLQRPGQSPQLLIYRMSNLASGVPDRFSGSGSGTAFTLRISRVEAEDVGVYYCMQHLEYPFTFGSGTKLEIK is 77100
